This collection of values is drawn from ChEMBL document CHEMBL1126420.

- targetUnderTest: UniProt O70528
- Sequence (O70528 whole entry): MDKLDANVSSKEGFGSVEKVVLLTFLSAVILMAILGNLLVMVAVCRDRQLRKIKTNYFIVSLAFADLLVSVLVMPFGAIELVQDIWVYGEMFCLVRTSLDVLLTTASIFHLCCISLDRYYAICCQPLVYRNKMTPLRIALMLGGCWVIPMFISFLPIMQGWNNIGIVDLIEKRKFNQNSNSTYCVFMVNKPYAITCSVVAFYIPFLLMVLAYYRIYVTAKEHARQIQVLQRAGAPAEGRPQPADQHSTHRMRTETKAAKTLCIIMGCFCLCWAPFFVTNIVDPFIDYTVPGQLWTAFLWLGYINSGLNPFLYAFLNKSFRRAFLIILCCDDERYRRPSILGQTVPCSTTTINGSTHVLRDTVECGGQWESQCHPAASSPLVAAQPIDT
- protocolDescription: Agonistic activity against Serotonin 5-hydroxytryptamine 4 receptor in low frequency field stimulation of guinea-pig ileum (FSGPI).
- Assay type: functional, tissue-based
Each item that follows carries a reported pD2.
readoutType: pD2

{"compound": "CN1C2CC(OC(=O)c3c[nH]c4ccccc34)CC1C1OC12 (configuration not stated)", "measuredValue": 0}
{"compound": "Nc1c(Cl)cc(C(=O)NC2CCN3CCCC2C3)c2nsnc12 (configuration not stated)", "measuredValue": 7.2}
{"compound": "Cc1nccn1CC1CCc2c(c3ccccc3n2C)C1=O (configuration not stated)", "measuredValue": 5.1}
{"compound": "COc1ccc2[nH]ccc2c1C(=O)NC1CN2CCC1CC2 (configuration not stated)", "measuredValue": 6.6}
{"compound": "CCN(CC)CCNC(=O)c1cc(Cl)c(N)cc1OC [METOCLOPRAMIDE]", "measuredValue": 5.5}
{"compound": "Nc1c(Cl)cc(C(=O)NC2CN3CCC2CC3)c2nsnc12 (configuration not stated)", "measuredValue": 5.8}
{"compound": "Nc1c(Cl)cc(C(=O)NC2CN3CCC2CC3)c2ncccc12 (configuration not stated)", "measuredValue": 7.2}
